test: recombinant barcode read abundance after kanamycin selection (control-corrected) (log10(CPM+1)); higher = more efficient recombination; sequences stand for … in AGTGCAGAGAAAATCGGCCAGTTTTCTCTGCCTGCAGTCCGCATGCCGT…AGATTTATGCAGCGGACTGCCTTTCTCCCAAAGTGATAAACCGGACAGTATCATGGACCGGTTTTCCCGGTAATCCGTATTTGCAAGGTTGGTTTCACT; site = the 11-nt target
The label depends only on recombinant barcode read abundance (log10): Fulfilled if it is at least 0.6, Not fulfilled if it is smaller.

SEQUENCE TEXT	CLASS LABEL
GGGGATCCTTGGGTTCTAACCTGTTGCGA (site GGGGATCCTTC)	Fulfilled
ACAATCTCTTGGGTTCTAACCTGTTGCTC (site ACAATCTCTGA)	Fulfilled
GTTACTACTTGGGTTCTAACCTGTTGCCG (site GTTACTACTCG)	Not fulfilled
CTAGTAGCTTGGGTTCTAACCTGTTGCGG (site CTAGTAGCTAC)	Not fulfilled
AGGTCGTCTTGGGTTCTAACCTGTTGCCT (site AGGTCGTCTAG)	Fulfilled
GCCTCGTCTTGGGTTCTAACCTGTTGCCT (site GCTTCGTCTAG)	Not fulfilled
GACATCCCTTGGGTTCTAACCTGTTGCCT (site GACATCACTAG)	Not fulfilled
CTCTAGTCTTGGGTTCTAACCTGTTGCTT (site CTCTAGTCTAA)	Fulfilled
CAATCACCTTGGGTTCTAACCTGTTGCTT (site CAATCACCTAA)	Fulfilled
CGGAGTCCTTGGGTTCTAACCTGTTGCTA (site CGGAGTCCTTA)	Fulfilled

* * *

test: recombinant UMI read abundance after kanamycin selection (control-corrected) (log10(CPM+1)); higher = more efficient recombination; extreme values may be limits of the assay; sequences stand for … in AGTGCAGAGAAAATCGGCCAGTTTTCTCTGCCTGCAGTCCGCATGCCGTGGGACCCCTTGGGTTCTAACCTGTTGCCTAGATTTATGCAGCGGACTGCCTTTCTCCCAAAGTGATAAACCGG…AGGTTGGTTTCACT; site = the 11-nt donor

SEQUENCE TEXT	recombinant UMI read abundance (log10)
ATCCAAGCATGGACCGGTTTTCCCGGTAATCCGTATTTGTG (site ATCCAAGCTCA)	1.51
CACGCGTCATGGACCGGTTTTCCCGGTAATCCGTATTTGAG (site CACGCGTCTCT)	2.11
ACATCTACATGGACCGGTTTTCCCGGTAATCCGTATTTGTG (site ACATCTCCTCA)	0.0291
TCCTCCTCATGGACCGGTTTTCCCGGTAATCCGTATTTGCC (site TCCTCCTCTGG)	0
AATGATGCATGGACCGGTTTTCCCGGTAATCCGTATTTGGA (site AATTATGCTTC)	0.561
CGGAGCACATGGACCGGTTTTCCCGGTAATCCGTATTTGAA (site CGGAGCACTTT)	1.77
TTGCTCACATGGACCGGTTTTCCCGGTAATCCGTATTTGTC (site TTGCTCACTGA)	2.25
ATAAACCCATGGACCGGTTTTCCCGGTAATCCGTATTTGAT (site ATAAACCCTAT)	1.19
TTCTAGGCATGGACCGGTTTTCCCGGTAATCCGTATTTGGT (site TCCTAGGCTAC)	0.0191
